Test system: LLC-MK2 monkey kidney epithelial cells
protocol-notes: Cytotoxicity test, MTT/formazan assay
Type: cell-based
conditions-used: mean of the Selectivity Indices of the 3D7 and Dd2 parasite strains
Would you mind telling me the reported Mean SI of each entry?
Lab note: jot the number down without any unit.

Exercise: Looking for the measured Mean SI of O=C(c1ccc(F)cc1)C1CCN(Cc2ccc(F)cc2)CC1 , can you help?
Key: 27.54

Exercise: Looking for the measured Mean SI of OC(c1ccc(F)cc1)C1CCN(Cc2ccc(Cl)cc2)CC1 (centres unmarked) , can you help?
Key: 156.25

Exercise: Looking for the measured Mean SI of OC(c1ccc(F)cc1)C1CCN(Cc2ccc(Br)cc2)CC1 (centres unmarked) , can you help?
Key: 128.26

Exercise: Looking for the measured Mean SI of OC(c1ccc(F)cc1)C1CCN(Cc2ccc(Cl)c(Cl)c2)CC1 (centres unmarked) , can you help?
Key: 46.41

Exercise: Looking for the measured Mean SI of Cc1ccc(CN2CCC(C(O)c3ccc(F)cc3)CC2)cc1 (centres unmarked) , can you help?
Key: 61.46
